// provenance: paper PMC7429544

Target: Gal-1–Gal-3
Construct: engineered heterodimer in one polypeptide: N-terminal Gal-1 CRD fused directly to Gal-3 CRD; recombinant from bacteria
Assay: isothermal titration calorimetry
Conditions: 25 °C, pH 7.2, 20 mM phosphate, 10 mM NaCl, 2 mM β-mercaptoethanol; one-set-of-sites model; protein precipitated, dissolved and dialyzed

MOLECULE: CC(=O)N[C@H]1C(O)O[C@H](CO)[C@@H](O[C@@H]2O[C@H](CO)[C@H](O)[C@H](O)[C@H]2O)[C@@H]1O (stereo partly shown)
Kd (µM): 59

====

Biological target: Gal-3–8S–Gal-1
Construct: engineered heterodimer in one polypeptide: N-terminal Gal-3 CRD, 33-residue Gal-8S linker, Gal-1 CRD; recombinant from bacteria
Experiment: isothermal titration calorimetry
Conditions: 25 °C, pH 7.2, 20 mM phosphate, 10 mM NaCl, 2 mM β-mercaptoethanol; one-set-of-sites model; lyophilized protein (first of two preparations)
pKd: −log10 of the molar value.
MEASURED PROPERTY: pKd

COMPOUND: CC(=O)N[C@H]1C(O)O[C@H](CO)[C@@H](O[C@@H]2O[C@H](CO)[C@H](O)[C@H](O)[C@H]2O)[C@@H]1O (stereo partly shown)
TESTED ON: Gal-3–8S–Gal-1
MEASURED PROPERTY: pKd
EXPERIMENTAL RESULT: 4.22
